Data origin, for the record: the supplement of paper PMC10567573

B1: OAS1 (parent)
chain: YIGTHEYPHFSHRPSTLQAASTPQ

# Variants of: B1
# PROTOCOL_DETAILS: protein stability index of a GFP-peptide fusion (GPS, HEK-293T) (PSI 1-6); higher = more stable;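 further: lentivirally expressed fusions sorted by FACS into six bins by GFP to DsRed ratio, PSI derived from sequencing read proportions per bin multiplied by bin number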
# STATED_CONDITIONS: c terminus: a fixed tail appended
READOUT: protein stability index
Could you respond with only the numeric value?

| MUTATION_NAME | protein stability index |
| --- | --- |
| P8Y | 1.92 |
| S21A | 2.1 |
| T22L | 1.78 |

In plain terms, E6T has a documented protein stability index of 2.14

So for T16E , the logged protein stability index turned out to be 2.46

// field: protein stability index; key: A19C ; value = 2.07

Noted for H5R : its protein stability index reads 2.35
